Cited source for all entries: paper PMC9669016

# Protocol Text: Clinical pharmacokinetics: plasma CYH33 and I27 by LC/MS/MS
# Assay type: in vivo, human
# Settings: human, plasma, oral; CYH33, Cycle 1 Day 1, 20 mg (n = 5); read-out: AUC0-∞, mean (CV%)
Observed Property: AUC(0-inf)
Phrase the answer as number then unit, nothing more needed.

Quick one: AUC(0-inf) of COC(=O)Nc1cc(C(F)(F)F)c(-c2nc(N3CCOCC3)c3cc(CN4CCN(S(C)(=O)=O)CC4)cn3n2)cn1 ?
2190 ng·h/mL

---

# Protocol Text: Clinical pharmacokinetics: plasma CYH33 and I27 by LC/MS/MS
# Format: in vivo, human
# Settings: C1D28, 60 mg, 8 h
Observed Property: CYH33 plasma concentration, mean (ng/mL)
The reply should contain only the number, in ng/mL.

Quick one: CYH33 plasma concentration, mean of COC(=O)Nc1cc(C(F)(F)F)c(-c2nc(N3CCOCC3)c3cc(CN4CCN(S(C)(=O)=O)CC4)cn3n2)cn1 [CYH33] ?
181

---

# Protocol Text: Clinical pharmacokinetics: plasma CYH33 and I27 by LC/MS/MS
# Format: in vivo, human
# Settings: C1D1, 60 mg, 1 h
Observed Property: CYH33 plasma concentration, mean (ng/mL)
The reply should contain only the number, in ng/mL.

Quick one: CYH33 plasma concentration, mean of COC(=O)Nc1cc(C(F)(F)F)c(-c2nc(N3CCOCC3)c3cc(CN4CCN(S(C)(=O)=O)CC4)cn3n2)cn1 ?
55.6

---

# Protocol Text: Clinical pharmacokinetics: plasma CYH33 and I27 by LC/MS/MS
# Type: in vivo, human
# Settings: human, plasma, oral; C1D28, 30 mg, 24 h
Observed Property: concentration at 24 h (ng/mL)
The reply should contain only the number, in ng/mL.

Quick one: concentration at 24 h of COC(=O)Nc1cc(C(F)(F)F)c(-c2nc(N3CCOCC3)c3cc(CN4CCN(S(C)(=O)=O)CC4)cn3n2)cn1 ?
124

---

# Protocol Text: Clinical pharmacokinetics: plasma CYH33 and I27 by LC/MS/MS
# Format: in vivo, human
# Settings: human, plasma, oral; C1D28, 1 mg, 0 h
Observed Property: concentration at 0 h
Phrase the answer as number then unit, nothing more needed.

Quick one: concentration at 0 h of COC(=O)Nc1cc(C(F)(F)F)c(-c2nc(N3CCOCC3)c3cc(CN4CCN(S(C)(=O)=O)CC4)cn3n2)cn1 ?
0 ng/mL

---

# Protocol Text: Clinical pharmacokinetics: plasma CYH33 and I27 by LC/MS/MS
# Assay type: in vivo, human
# Settings: human, plasma, oral; C1D1, 5 mg, 24 h
Observed Property: concentration at 24 h (ng/mL)
The reply should contain only the number, in ng/mL.

Quick one: concentration at 24 h of COC(=O)Nc1cc(C(F)(F)F)c(-c2nc(N3CCOCC3)c3cc(CN4CCN(S(C)(=O)=O)CC4)cn3n2)cn1 [CYH33] ?
5.9

---

# Protocol Text: Clinical pharmacokinetics: plasma CYH33 and I27 by LC/MS/MS
# Type: in vivo, human
# Settings: C1D28, 60 mg, 1 h
Observed Property: CYH33 plasma concentration, mean (ng/mL)
The reply should contain only the number, in ng/mL.

Quick one: CYH33 plasma concentration, mean of COC(=O)Nc1cc(C(F)(F)F)c(-c2nc(N3CCOCC3)c3cc(CN4CCN(S(C)(=O)=O)CC4)cn3n2)cn1 ?
184

---

# Protocol Text: Clinical pharmacokinetics: plasma CYH33 and I27 by LC/MS/MS
# Type: in vivo, human
# Settings: C1D1, 40 mg, 2 h
Observed Property: CYH33 plasma concentration, mean (ng/mL)
The reply should contain only the number, in ng/mL.

Quick one: CYH33 plasma concentration, mean of COC(=O)Nc1cc(C(F)(F)F)c(-c2nc(N3CCOCC3)c3cc(CN4CCN(S(C)(=O)=O)CC4)cn3n2)cn1 ?
87

---

# Protocol Text: Clinical pharmacokinetics: plasma CYH33 and I27 by LC/MS/MS
# Type: in vivo, human
# Settings: human, plasma, oral, 60 mg, CYH33, Cycle 1 Day 1, 60 mg (n = 4); read-out: Tmax, median (min-max)
# Description: The PK characteristics of CYH33 and its active metabolite I27 were evaluated after single and multiple dose administrations. PK data were obtained from 37 patients from 7 dose cohorts: 1 mg (n = 1), 5 mg (n = 1), 10 mg (n = 2), 20 mg (n = 6), 30 mg (n = 12), 40 mg (n = 13), and 60 mg (n = 2). […] Based on the single dose PK data for CYH33 of the first 5 patients at doses of 1, 5, 10 and 20 mg, the PK and metabolic characteristics of CYH33 and I27 were evaluated. […]
Observed Property: Tmax (h)
The reply should contain only the number, in h.

Quick one: Tmax of COC(=O)Nc1cc(C(F)(F)F)c(-c2nc(N3CCOCC3)c3cc(CN4CCN(S(C)(=O)=O)CC4)cn3n2)cn1 ?
4

---

# Protocol Text: Clinical pharmacokinetics: plasma CYH33 and I27 by LC/MS/MS
# Assay type: in vivo, human
# Settings: human, plasma, oral, 5 mg, CYH33, Cycle 1 Day 1, 5 mg (n = 1); read-out: Cmax, mean (CV%)
Observed Property: Cmax (ng/mL)
The reply should contain only the number, in ng/mL.

Quick one: Cmax of COC(=O)Nc1cc(C(F)(F)F)c(-c2nc(N3CCOCC3)c3cc(CN4CCN(S(C)(=O)=O)CC4)cn3n2)cn1 [CYH33] ?
24.6

---

# Protocol Text: Clinical pharmacokinetics: plasma CYH33 and I27 by LC/MS/MS
# Format: in vivo, human
# Settings: C1D28, 10 mg, 8 h
# Experimental: The PK characteristics of CYH33 and its active metabolite I27 were evaluated after single and multiple dose administrations. PK data were obtained from 37 patients from 7 dose cohorts: 1 mg (n = 1), 5 mg (n = 1), 10 mg (n = 2), 20 mg (n = 6), 30 mg (n = 12), 40 mg (n = 13), and 60 mg (n = 2). […] Based on the single dose PK data for CYH33 of the first 5 patients at doses of 1, 5, 10 and 20 mg, the PK and metabolic characteristics of CYH33 and I27 were evaluated. […]
Observed Property: CYH33 plasma concentration, mean (ng/mL)
The reply should contain only the number, in ng/mL.

Quick one: CYH33 plasma concentration, mean of COC(=O)Nc1cc(C(F)(F)F)c(-c2nc(N3CCOCC3)c3cc(CN4CCN(S(C)(=O)=O)CC4)cn3n2)cn1 ?
55.7

---

# Protocol Text: Clinical pharmacokinetics: plasma CYH33 and I27 by LC/MS/MS
# Format: in vivo, human
# Settings: human, plasma, oral, 10 mg, CYH33, Cycle 1 Day 1, 10 mg (n = 2); read-out: AUC0-24h, mean (CV%)
Observed Property: AUC(0-t) (µg·h/mL)
The reply should contain only the number, in µg·h/mL.

Quick one: AUC(0-t) of COC(=O)Nc1cc(C(F)(F)F)c(-c2nc(N3CCOCC3)c3cc(CN4CCN(S(C)(=O)=O)CC4)cn3n2)cn1 ?
0.624

---

# Protocol Text: Clinical pharmacokinetics: plasma CYH33 and I27 by LC/MS/MS
# Assay type: in vivo, human
# Settings: human, plasma, oral, 20 mg, CYH33, Cycle 1 Day 1, 20 mg (n = 5); read-out: Tmax, median (min-max)
Observed Property: Tmax

Quick one: Tmax of COC(=O)Nc1cc(C(F)(F)F)c(-c2nc(N3CCOCC3)c3cc(CN4CCN(S(C)(=O)=O)CC4)cn3n2)cn1 [CYH33] ?
2 h

---

# Protocol Text: Clinical pharmacokinetics: plasma CYH33 and I27 by LC/MS/MS
# Assay type: in vivo, human
# Settings: C1D28, 5 mg, 0.5 h
Observed Property: CYH33 plasma concentration, mean (ng/mL)
The reply should contain only the number, in ng/mL.

Quick one: CYH33 plasma concentration, mean of COC(=O)Nc1cc(C(F)(F)F)c(-c2nc(N3CCOCC3)c3cc(CN4CCN(S(C)(=O)=O)CC4)cn3n2)cn1 ?
48.6

---

# Protocol Text: Clinical pharmacokinetics: plasma CYH33 and I27 by LC/MS/MS
# Assay type: in vivo, human
# Settings: human, plasma, oral, 5 mg, CYH33, Cycle 1 Day 28, 5 mg (n=1); read-out: AUC0-24h, mean
Observed Property: AUC(0-t)
Phrase the answer as number then unit, nothing more needed.

Quick one: AUC(0-t) of COC(=O)Nc1cc(C(F)(F)F)c(-c2nc(N3CCOCC3)c3cc(CN4CCN(S(C)(=O)=O)CC4)cn3n2)cn1 ?
582 ng·h/mL

---

# Protocol Text: Clinical pharmacokinetics: plasma CYH33 and I27 by LC/MS/MS
# Assay type: in vivo, human
# Settings: C1D1, 10 mg, 48 h
Observed Property: CYH33 plasma concentration, mean
Phrase the answer as number then unit, nothing more needed.

Quick one: CYH33 plasma concentration, mean of COC(=O)Nc1cc(C(F)(F)F)c(-c2nc(N3CCOCC3)c3cc(CN4CCN(S(C)(=O)=O)CC4)cn3n2)cn1 ?
6.8 ng/mL
